# assayed-target: dihydrooroate dehydrogenase (Homo sapiens)
# Construct: ultracentrifugation at 4° C. and 120,000×g for 60 minutes afforded a mitochondrial/microsomal fraction; endogenous in cells
# Sequence (Q02127 whole entry): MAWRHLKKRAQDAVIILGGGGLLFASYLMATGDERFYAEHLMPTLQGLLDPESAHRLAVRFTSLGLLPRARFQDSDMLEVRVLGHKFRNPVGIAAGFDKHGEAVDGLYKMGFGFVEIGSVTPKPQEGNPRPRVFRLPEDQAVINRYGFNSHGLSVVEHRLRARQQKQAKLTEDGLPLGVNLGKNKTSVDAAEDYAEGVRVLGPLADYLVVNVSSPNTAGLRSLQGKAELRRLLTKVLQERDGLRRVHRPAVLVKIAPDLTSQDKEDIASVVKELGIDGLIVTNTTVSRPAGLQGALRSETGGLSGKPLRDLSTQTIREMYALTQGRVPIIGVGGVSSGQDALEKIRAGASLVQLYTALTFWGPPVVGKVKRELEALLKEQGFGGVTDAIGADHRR
# assay-text: dihydroorotate dehydrogenase inhibition, U-937 mitochondrial/microsomal fraction, DCIP absorbance at 620 nm
# settings: DHODH of human U-937 cell mitochondrial/microsomal fraction; 37° C., 120 minutes
observed-property: log10(IC50) (log10 of the value in nM)
Log10 applied to IC50; unit prior to transform: nM.

Problem: Please provide the recorded log10(IC50) for C/C(=C\c1c(C)c(C)c(-c2ccc3[nH]ccc3c2)c(C)c1C)C(=O)NC(C)C [Compound 427] , tested on dihydrooroate dehydrogenase (Homo sapiens).
Result: 1.12

Problem: Can you look up log10(IC50) on dihydrooroate dehydrogenase (Homo sapiens) for COC(=O)[C@@H](C)NC(=O)/C(C)=C/c1cc(C)c(-c2ccc(NC(C)C)cc2F)cc1C [Compound 348] ?
Result: 0.79

Problem: Record lookup: for dihydrooroate dehydrogenase (Homo sapiens), what log10(IC50) belongs to CO/C(=C\c1cc(C)c(-c2ccc(NC(C)C)cc2F)cc1C)C(=O)NC(C)C [Compound 292] ?
Result: 0.44

Problem: Param readout = log10(IC50); param system = dihydrooroate dehydrogenase (Homo sapiens); param query = CC/C(=C\c1c(C)c(OC)c(-c2ccc(NC(C)C)cc2)c(C)c1OC)C(=O)NC(C)C [Compound 530] ; response: value
Result: 0.99

Problem: Given the entry CC/C(=C\c1cc(C)c(-c2ccc(NC3CCCC3)cc2F)cc1C)C(=O)NC1CC1 [Compound 173] , what log10(IC50) was observed with dihydrooroate dehydrogenase (Homo sapiens)?
Result: 0.85

Problem: Param readout= log10(IC50); system= dihydrooroate dehydrogenase (Homo sapiens); entry= Cc1c(F)c(-c2ccc(NC3CCCC3)cc2)c(C)c(F)c1/C=C(\F)C(=O)NC(C)C [Compound 518] ; returns value.
Result: 0.86

Problem: For the record C/C(=C\c1cc(C)c(-c2ccc3[nH]c(C)cc3c2)cc1C)C(=O)NC(C)C [Compound 383] , what value of log10(IC50) is listed for dihydrooroate dehydrogenase (Homo sapiens)?
Result: 1.13

Problem: I'm curious: which log10(IC50) was measured for C/C(=C\c1cc(C)c(-c2ccc(NC(C)C)cc2F)cc1C)C(=O)NC1CC1 [Compound 154] tested on dihydrooroate dehydrogenase (Homo sapiens)?
Result: 0.90

The reported measurements were obtained from patent US20070299114A1.
